Target or test system: UniProt:P08684
Sequence (P08684 whole entry): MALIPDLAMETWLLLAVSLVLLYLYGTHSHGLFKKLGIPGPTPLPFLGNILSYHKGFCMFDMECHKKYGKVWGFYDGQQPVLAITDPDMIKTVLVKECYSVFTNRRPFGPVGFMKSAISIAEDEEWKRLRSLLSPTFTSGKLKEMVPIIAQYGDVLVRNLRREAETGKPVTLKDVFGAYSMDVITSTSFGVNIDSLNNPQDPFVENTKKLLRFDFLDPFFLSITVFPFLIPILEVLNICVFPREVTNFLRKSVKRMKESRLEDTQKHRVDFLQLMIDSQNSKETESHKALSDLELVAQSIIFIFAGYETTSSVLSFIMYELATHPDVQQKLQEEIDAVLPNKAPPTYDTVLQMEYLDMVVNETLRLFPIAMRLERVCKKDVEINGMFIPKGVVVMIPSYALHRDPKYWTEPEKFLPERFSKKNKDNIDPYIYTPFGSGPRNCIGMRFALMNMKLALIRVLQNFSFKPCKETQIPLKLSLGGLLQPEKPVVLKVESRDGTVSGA
Experiment: Measurement of CYP (IC50 of P450 CYP3A4), BFC substrate
Type: in vitro ADME
Measurement setup: 20 minutes
IC50 values by entry
Please respond with the number in µM and leave the unit unwritten.

{"Input smiles": "C=CCN1CC(=O)N2[C@@H](Cc3ccc(O)cc3)C(=O)N(Cc3cccc4c(C(=O)N(C)CCCO)cn(C)c34)C[C@@H]2N1C(=O)NCc1ccccc1", "Result units": "µM", "Value reported": 3.68}

Which IC50 is reported for this molecule? C=CCN1CC(=O)N2[C@@H](Cc3ccc(O)cc3)C(=O)N(Cc3cccc4c(C(=O)N5CCN(CCCCO)CC5)cn(C)c34)C[C@@H]2N1C(=O)NCc1ccccc1
9.3

Which IC50 is reported for this molecule? C=CCN1CC(=O)N2[C@@H](Cc3ccc(O)cc3)C(=O)N(Cc3cccc4c(C(=O)NCCN5CCOCC5)cn(C)c34)C[C@@H]2N1C(=O)NCc1ccccc1
8.5
